B1: TMEM175 (parent)
chain: SCTIIFLASIFQLAMWTTALLHQA

- Variants of: B1
- EXPERIMENTAL_PROTOCOL: protein stability index of a GFP-peptide fusion (GPS, HEK-293T) (PSI 1-6); higher = more stable;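 further: lentivirally expressed fusions sorted by FACS into six bins by GFP to DsRed ratio, PSI derived from sequencing read proportions per bin multiplied by bin number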
- ASSAY_CONTEXT: c terminus: a fixed tail appended

{"MUTATION_NAME": "I4N", "protein stability index": 3}
{"MUTATION_NAME": "I10Q", "protein stability index": 2.91}
{"MUTATION_NAME": "T18S", "protein stability index": 3.06}
{"MUTATION_NAME": "W16I", "protein stability index": 3.15}
{"MUTATION_NAME": "I4G", "protein stability index": 2.7}
{"MUTATION_NAME": "Q12G", "protein stability index": 2.9}
{"MUTATION_NAME": "F6P", "protein stability index": 2.59}
{"MUTATION_NAME": "I10Y", "protein stability index": 3.52}
{"MUTATION_NAME": "A24M", "protein stability index": 1.89}
{"MUTATION_NAME": "L7W", "protein stability index": 3.1}
{"MUTATION_NAME": "L21M", "protein stability index": 2.73}
{"MUTATION_NAME": "Q23K", "protein stability index": 3.26}
